- ASSAY METHOD TEXT: Cytotoxicity against mouse BV-2 cells assessed as cell viability by MTT assay
- Assay type: cell-based
- Parameters: concentration or dose not given beside the values
- CONDITION SUMMARY: read-out: Activity
EXPERIMENTAL READOUT: viability
The reply should read as a number followed by its unit.

Query (compound): C=C(C)[C@@H]1CC[C@]2(C(=O)O)C[C@H](O)[C@]3(C)[C@H](CC[C@@H]4[C@@]5(C)CCC(=O)C(C)(C)[C@@H]5C[C@H](O)[C@]43C)[C@@H]12 ; field requested: viability
101%

For CC(=O)OC[C@H](C)[C@@H]1CC[C@]2(C(=O)O)CC[C@]3(C)[C@H](CC[C@@H]4[C@@]5(C)CCC(=O)C(C)(C)[C@@H]5C[C@H](O)[C@]43C)[C@@H]12 , what is its reported viability?
99.5%

Which viability value belongs to C=C(C)[C@@H]1CC[C@]2(C(=O)O)C[C@H](O)[C@]3(C)[C@H](C[C@@H](O)[C@@H]4[C@@]5(C)CCC(=O)C(C)(C)[C@@H]5CC[C@]43C)[C@@H]12 ?
103%

# lookup: viability of C=C(CO)[C@@H]1CC[C@]2(C(=O)O)CC[C@]3(C)[C@H](CC[C@@H]4[C@@]5(C)CCC(=O)C(C)(C)[C@@H]5CC[C@]43C)[C@@H]12
104%

Would you kindly share the measured viability for C=C(COC(C)=O)[C@@H]1CC[C@]2(C(=O)O)CC[C@]3(C)[C@H](CC[C@@H]4[C@@]5(C)CCC(=O)C(C)(C)[C@@H]5C[C@H](O)[C@]43C)[C@@H]12 ?
109%
